Source listed as patent US20240208959A1.

Sequence of the target: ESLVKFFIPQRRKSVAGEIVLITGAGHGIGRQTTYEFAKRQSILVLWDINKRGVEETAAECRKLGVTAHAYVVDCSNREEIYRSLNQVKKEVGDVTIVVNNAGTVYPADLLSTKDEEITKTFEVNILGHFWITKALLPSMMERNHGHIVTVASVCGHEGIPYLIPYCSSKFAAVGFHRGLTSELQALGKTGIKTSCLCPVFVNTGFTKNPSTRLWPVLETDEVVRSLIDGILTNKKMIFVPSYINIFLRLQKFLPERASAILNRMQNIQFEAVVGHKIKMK
pIC50: −log10 of the molar value.
measure-name: pIC50

O=C(Nc1ncsc1C(=O)NCc1ccccc1F)c1cc(F)c(O)c(Cl)c1 = 6.30 to 7.00

Exercise: May I ask what pIC50 has been recorded for `O=C(Nc1ncsc1C(=O)NCc1ccccc1C(F)(F)F)c1cc(F)c(O)c(F)c1` ?
Key: ≥ 7.00

Exercise: May I ask what pIC50 has been recorded for `O=C(Nc1scnc1C(=O)NCc1ccccc1OC(F)(F)F)c1c[nH]c(=O)cn1` ?
Key: < 5.00

Exercise: May I ask what pIC50 has been recorded for `O=C(Nc1ncsc1C(=O)NCc1ccccc1OC(F)(F)F)c1cc(F)c(O)c(Cl)c1` ?
Key: 6.30 to 7.00
